TGI: recorded values
system: HCT-15 colon; test: NCI tumour cell line growth inhibition, 48 h
assay_endpoint: TGI

molecule	observed
C[C@]12CC[C@H]3[C@@H](CCC4=CC(=O)CC[C@@H]43)[C@@H]1CC[C@]2(O)C(N)=O	> 100 µM
O=C1Cc2c([nH]c3ccc(Br)cc23)-c2cc(Br)ccc2N1	> 100 µM
COC(=O)C(=O)C(C(=O)C(=O)Nc1ccccc1C(N)=O)c1nc2ccc(Cl)cc2[nH]c1=O (configuration not stated)	> 100 µM
COc1nn(Cc2ccccn2)c2ccc([N+](=O)[O-])cc12	> 100 µM
COc1ccc(CNc2ccn(C3OC(CO)C(O)C3O)c(=O)n2)cc1 (configuration not stated)	> 100 µM
NCc1ccc(-c2ccc(CN)s2)s1	> 100 µM
CC(=O)OCC(OC(C)=O)C1C[C@H]2O[C@@H]3[C@H](C[C@H]2O1)O[C@@]1(C[C@@H]3C)C[C@H](C)[C@@H]2O[C@]3(C[C@@H]2O1)C[C@H]1O[C@H]2[C@H](C)[C@H]4OC(=O)C[C@H]5CC[C@@H]6OC7[C@H]8O[C@]9(CC[C@H]%10CC(=O)[C@H](CC[C@H]%11C[C@@H](C)C(=O)C(C[C@@H]4O[C@H]2C[C@H]1O3)O%11)O%10)CC8O[C@@H]7[C@@H](O9)[C@H]6O5 (some centres not stated)	> 0.219 µM
O=C(c1cccc(O)c1O)c1cn(Cc2ccc(F)cc2)c2cccc(O)c12	14.8 µM
CN/N=C(/CCN1CCCC1)CC(c1ccccc1)c1c(O)c2ccccc2oc1=O (configuration not stated)	> 100 µM
CC12CCCC(C(=O)O)(C1)[C@H](C(C)(C)C(=O)O)CC2 (some centres not stated)	> 100 µM
O=C(O)CC1OCC=C2CN3CCC45c6ccccc6NC4C1C2CC35 (configuration not stated)	> 100 µM
CCS(=O)(=O)c1ccc(OC)c(Nc2ncc(-c3cccc(OC)c3)o2)c1	> 25 µM
CC[O-].CC[O-].O=C1c2ccccc2C(=O)c2c(O)ccc([O-])c21.O=C1c2ccccc2C(=O)c2c(O)ccc([O-])c21.[Ti+4]	> 100 µM
COc1ccc(C(=O)COc2cccc(/C=C3\COc4ccc5ccccc5c4C3=O)c2)cc1	> 100 µM
Cc1cc(C)nc(NS(=O)(=O)c2ccc(Nc3c4ccccc4nc4c(C(=O)Nc5ccc(S(=O)(=O)Nc6cc(C)on6)cc5)cccc34)cc2)n1	> 100 µM
C/C(Cl)=N/OC(=O)Nc1ccc(F)c([N+](=O)[O-])c1	12.6 µM
NC(CC(=O)OCc1ccccc1)C(=O)OCc1ccccc1 (configuration not stated)	> 100 µM
CC(NC(=O)OCc1ccccc1)NC(=O)OC(C)(C)C (configuration not stated)	> 100 µM
Clc1nc(Cl)c2ncn(Cc3cccc(COc4cccc(OCc5cccc(Cn6cnc7c(Cl)nc(Cl)nc76)c5)c4)c3)c2n1	> 100 µM
CC(C)OC(=O)c1ccc(NCC2=CC(=O)C=CC2=O)cc1	25.5 µM
CCN(CC)CCCC(C)Nc1c(C)cnc2cc(Cl)c(C)cc12 (configuration not stated)	> 68 µM
CC(=O)OC1Oc2ccccc2-c2oc(=O)c(-c3cc4ccc(N(C)C)cc4oc3=O)cc21 (configuration not stated)	> 100 µM
Cc1cccc2nc(-c3ccccc3)cc(=O)n12	> 100 µM
COC(=O)c1ccccc1/C=C1\Cc2c(ccc3c2CCC3)C1=O	> 100 µM
Fc1cc(F)c(COc2cc(Cn3cnc4c(Cl)nc(Cl)nc43)ccc2C23CC4CC(CC(C4)C2)C3)cc1F	31.9 µM
CCN(CCCl)c1cc(CN(C)C)cc(NC(=O)c2ccc(C(=O)Nc3cc(CN(C)C)cc(N(CC)CCCl)c3)cc2)c1	29.5 µM
CCOC(=O)c1c(CN2CCN(c3ccccc3)CC2)n(-c2ccccc2)c2cc(Br)c(O)cc12	38.6 µM
CCCCN=C(N)c1ccc(OCCSCCOc2ccc(C(N)=NCCCC)cc2)cc1	> 100 µM
C1=C(CC2=C[P+](c3ccccc3)(c3ccccc3)C=C(c3ccccc3)O2)OC(c2ccccc2)=C[P+]1(c1ccccc1)c1ccccc1	3.22 µM
O=[N+]([O-])/C(C(Cl)=C(Cl)Cl)=C1\Nc2ccc([N+](=O)[O-])cc2N1	> 100 µM
[O-][n+]1nc(N2CCOCC2)nc2ccccc21	> 100 µM
Cc1[nH]c(=O)[nH]c(=O)c1/C=C/C(=O)NC(CO)CC(C)C (configuration not stated)	> 375 µM
CCN(CC)CCN1CC(O)=C(c2nc(-c3ccc(Cl)cc3)cs2)C1=N	3.42 µM
NCC(Cl)C(O)c1cnc(N)[nH]1 (configuration not stated)	> 63.2 µM
CN(C)CCNC(=O)c1cccc(C(=O)Nc2ccccc2)c1[N+](=O)[O-]	> 100 µM
COc1ccc(C(C)c2cc3c(cc2OC)OCO3)cc1 (configuration not stated)	13.5 µM
COc1cc(OC)c(/C=C/C(=O)c2c(OC)cccc2OC)c(OC)c1	> 100 µM
